# target.of.assay: wild type MLL1 five-member complex (MLL1-5C) (Homo sapiens, UniProt Q03164)
# assay: MLL1 Flashplate Assay
# conditions.used: read-out: MLL1 flash plate
pIC50: −log10 of the molar value.

{"columns": ["compound", "target.of.assay", "pIC50"],
 "data": [
  ["CC(C)(C#N)CNC(=O)[C@@]1(N)CCN(c2ccc(F)c(C(F)(F)F)c2Cn2cnc3c(N)ncnc32)C1 [Example 125]", "wild type MLL1 five-member complex (MLL1-5C) (Homo sapiens, UniProt Q03164)", "> 7.22"],
  ["Nc1ncnc2c1ncn2Cc1c(N2CC[C@](N)(C(=O)NC3CC3)C2)ccc2ccoc12 [Example 112]", "wild type MLL1 five-member complex (MLL1-5C) (Homo sapiens, UniProt Q03164)", "> 7.22"],
  ["Nc1ncnc2c1ncn2Cc1c(Br)cc(Cl)cc1N1CC[C@](N)(CO)C1 [Example 19]", "wild type MLL1 five-member complex (MLL1-5C) (Homo sapiens, UniProt Q03164)", "> 7.22"],
  ["Nc1ncnc2c1ncn2Cc1c(-c2ccc3c(c2)CCO3)cc(Cl)cc1N1CC[C@](N)(C(=O)NC2CC2)C1 [Example 3]", "wild type MLL1 five-member complex (MLL1-5C) (Homo sapiens, UniProt Q03164)", "< 7.00"],
  ["Cn1nnnc1[C@@]1(N)CCN(c2cc(Cl)cc(Br)c2Cn2cnc3c(N)ncnc32)C1 [Example 90]", "wild type MLL1 five-member complex (MLL1-5C) (Homo sapiens, UniProt Q03164)", "< 7.00"],
  ["Nc1ncnc2c1ncn2Cc1c(N2CC[C@@](N)(CO)C2)ccc2ccccc12 [Example 106]", "wild type MLL1 five-member complex (MLL1-5C) (Homo sapiens, UniProt Q03164)", "> 7.22"],
  ["CCc1c(Cl)ccc(N2CC[C@](N)(C(=O)N3CCS(=O)(=O)CC3)C2)c1Cn1cnc2c(N)ncnc21 [Example 155]", "wild type MLL1 five-member complex (MLL1-5C) (Homo sapiens, UniProt Q03164)", "< 7.00"],
  ["Nc1ncnc2c1ncn2Cc1c(N2CC[C@](N)(C(=O)NC3CC3)C2)ccc(F)c1C(F)(F)F [Example 116]", "wild type MLL1 five-member complex (MLL1-5C) (Homo sapiens, UniProt Q03164)", "> 7.22"],
  ["Nc1ncnc2c1ncn2Cc1c(N2CCC(N)(c3ccccn3)C2)ccc(F)c1C(F)(F)F (stereo not shown) [Example 22]", "wild type MLL1 five-member complex (MLL1-5C) (Homo sapiens, UniProt Q03164)", "7.00 to 7.22"],
  ["N#CCC1CCN(C(=O)[C@@]2(N)CCN(c3ccc(F)c(C(F)(F)F)c3Cn3cnc4c(N)ncnc43)C2)CC1 [Example 119]", "wild type MLL1 five-member complex (MLL1-5C) (Homo sapiens, UniProt Q03164)", "> 7.22"],
  ["CN(C)Cc1c(F)cc(Cl)c(N2CC[C@](N)(C(=O)NC3CC3)C2)c1Cn1cnc2c(N)ncnc21 [Example 72]", "wild type MLL1 five-member complex (MLL1-5C) (Homo sapiens, UniProt Q03164)", "< 7.00"],
  ["Nc1ncnc2c1ncn2Cc1c(Br)c(Cl)c2c(c1N1CC[C@](N)(C(=O)NC3CC3)C1)OCC2 [Example 110]", "wild type MLL1 five-member complex (MLL1-5C) (Homo sapiens, UniProt Q03164)", "> 7.22"],
  ["C=CC(=O)N1CCN(C(=O)[C@@]2(N)CCN(c3ccc(F)c(CC)c3Cn3cnc4c(N)ncnc43)C2)CC1 [Example 17]", "wild type MLL1 five-member complex (MLL1-5C) (Homo sapiens, UniProt Q03164)", "> 7.22"],
  ["Nc1ncnc2c1ncn2Cc1c(Cl)c(Cl)cc(F)c1N1CCC(N)(C(=O)NC2CC2)C1 (stereo not shown) [Example 152]", "wild type MLL1 five-member complex (MLL1-5C) (Homo sapiens, UniProt Q03164)", "> 7.22"],
  ["Nc1ncnc2c1ncn2Cc1cc(F)ccc1N1CC[C@](N)(C(=O)NC2CC2)C1 [Example 14]", "wild type MLL1 five-member complex (MLL1-5C) (Homo sapiens, UniProt Q03164)", "< 7.00"],
  ["Nc1ncnc2c1ncn2Cc1c(-c2cccc(C3CCCCC3)c2)cc(Cl)cc1N1CC[C@](N)(c2nn[nH]n2)C1 [Example 84]", "wild type MLL1 five-member complex (MLL1-5C) (Homo sapiens, UniProt Q03164)", "> 7.22"]
]}
